Source listed as the Immune Epitope Database (IEDB).

Target: HLA-A*01:01
Experiment: IEDB peptide-MHC binding, purified MHC/direct/fluorescence; filed as Kd, often an IC50 or EC50 that approximates it; bounds were set here for any values at or beyond the usual limits of such assays
Details: source organism: Corynebacterium glutamicum
pKd: −log10 of the molar value.
Quantity kind: pKd

// query Reported pKd for FAAAAARTL : what is it?
// result ≤ 4.70

---

Target: HLA-B*51:01
Experiment: IEDB peptide-MHC binding, purified MHC/competitive/fluorescence; filed as Kd, often an IC50 or EC50 that approximates it; bounds were set here for any values at or beyond the usual limits of such assays
Conditions: source organism: Giardia lamblia ATCC 50803
Quantity kind: Kd

// query Quick check: Kd on HLA-B*51:01, item DEYGPVFVE ?
// result ≥ 20 µM

---

Molecular target: HLA-A*03:01
Assay: IEDB peptide-MHC binding, purified MHC/competitive/fluorescence; filed as Kd, often an IC50 or EC50 that approximates it; bounds were set here for any values at or beyond the usual limits of such assays
Conditions: source organism: Bacillus anthracis str. A2012
Quantity kind: Kd (nM)
Quick reminder: number only, in nM, skip the unit.

// query Reported Kd for LLLSFTSFR : what is it?
// result 22.9

---

Biological target: HLA-A*26:01
Assay: IEDB peptide-MHC binding, purified MHC/competitive/radioactivity; filed as Kd, often an IC50 or EC50 that approximates it; bounds were set here for any values at or beyond the usual limits of such assays
Conditions: source organism: Dengue virus 2 Jamaica/1409/1983
Rule: Kd below 1000 nM gives fulfilled. Equal to or above 1000 nM gives not fulfilled.

Solved entries:
INSERT INTO assay_data (macromolecule_sequence, label_value) VALUES
  ('ETLGEKWKSR', 'not fulfilled'),
  ('GVPLLAIGCY', 'fulfilled'),
  ('GTIGAVSLDF', 'fulfilled');

// query Determine if ETLETLLLLT shows Kd strictly lower than 1000 nM.
// result not fulfilled

// query Cool, now EAEPPFGDSY
// result not fulfilled

---

Biological target: HLA-B*27:05
Experiment: IEDB peptide-MHC binding, purified MHC/direct/fluorescence; filed as Kd, often an IC50 or EC50 that approximates it; bounds were set here for any values at or beyond the usual limits of such assays
Settings: source organism: Marburg virus - Musoke, Kenya, 1980
Quantity kind: pKd
Convention used: pKd is expressed as -log10 of the molar concentration.

// query Reported pKd for NRWKSWFSY : what is it?
// result 7.06

---

Molecular target: HLA-A*02:06
Experiment: IEDB peptide-MHC binding, purified MHC/direct/fluorescence; filed as Kd, often an IC50 or EC50 that approximates it; bounds were set here for any values at or beyond the usual limits of such assays
Details: source organism: Influenza A virus(A/swine/Henan/2/2004(H9N2))
pKd: −log10 of the molar value.
Quantity kind: pKd

// query Quick check: pKd on HLA-A*02:06, item LLTEVETYV ?
// result ≥ 9.00

---

Kd values for the sequences below.
Target: HLA-B*07:02
Assay: IEDB peptide-MHC binding, purified MHC/competitive/radioactivity; filed as Kd, often an IC50 or EC50 that approximates it; bounds were set here for any values at or beyond the usual limits of such assays
Settings: source organism: SARS coronavirus Tor2
Quick reminder: number only, in nM, skip the unit.

Below are worked cases with known answers.
INSERT INTO results (macromolecule_sequence, meas_value) VALUES
  ('HPNPKGFCDL', 968),
  ('KPASRELSV', 5.7),
  ('FPCSICLSGL', 58.5);

Now consider a different sequence.
// query Reported Kd for CPAEIVDTV : what is it?
// result 893

---

Molecular target: HLA-B*18:01
Experiment: IEDB peptide-MHC binding, purified MHC/direct/fluorescence; filed as Kd, often an IC50 or EC50 that approximates it; bounds were set here for any values at or beyond the usual limits of such assays
Settings: source organism: Escherichia coli O157:H7
pKd: −log10 of the molar value.
Quantity kind: pKd

// query Reported pKd for WLSVIAFGK : what is it?
// result ≤ 4.70

---

Biological target: HLA-A*29:02
Assay: IEDB peptide-MHC binding, purified MHC/competitive/fluorescence; filed as Kd, often an IC50 or EC50 that approximates it; bounds were set here for any values at or beyond the usual limits of such assays
Conditions: source organism: Vibrio vulnificus CMCP6
Quantity kind: Kd

// query Reported Kd for WLAGFEPSE : what is it?
// result ≥ 20 µM

---

Molecular target: HLA-A*26:02
Experiment: IEDB peptide-MHC binding, purified MHC/competitive/fluorescence; filed as Kd, often an IC50 or EC50 that approximates it; bounds were set here for any values at or beyond the usual limits of such assays
Conditions: source organism: Human immunodeficiency virus 1
Quantity kind: Kd (nM)
Quick reminder: number only, in nM, skip the unit.

// query Reported Kd for KSLYNTIATLY : what is it?
// result 1060

---

Molecular target: HLA-A*29:02
Assay: IEDB peptide-MHC binding, purified MHC/competitive/fluorescence; filed as Kd, often an IC50 or EC50 that approximates it; bounds were set here for any values at or beyond the usual limits of such assays
Conditions: source organism: Salmonella enterica subsp. enterica serovar Typhi str. CT18
pKd: −log10 of the molar value.
Quantity kind: pKd

// query Reported pKd for KSKPRIHGY : what is it?
// result ≤ 4.70

---

Target: HLA-A*03:01
Assay: IEDB peptide-MHC binding, purified MHC/direct/fluorescence; filed as Kd, often an IC50 or EC50 that approximates it; bounds were set here for any values at or beyond the usual limits of such assays
Conditions: source organism: Pseudomonas aeruginosa
Quantity kind: Kd

// query Reported Kd for ALEPGFKDY : what is it?
// result ≥ 20 µM

---

Target: HLA-A*31:01
Test: IEDB peptide-MHC binding, purified MHC/competitive/radioactivity; filed as Kd, often an IC50 or EC50 that approximates it; bounds were set here for any values at or beyond the usual limits of such assays
Details: source organism: Mammarenavirus machupoense
Quantity kind: pKd
Convention used: pKd is expressed as -log10 of the molar concentration.

// query Reported pKd for SNIQFNISK : what is it?
// result 5.76

---

Biological target: HLA-A*03:01
Assay: IEDB peptide-MHC binding, purified MHC/direct/fluorescence; filed as Kd, often an IC50 or EC50 that approximates it; bounds were set here for any values at or beyond the usual limits of such assays
Conditions: source organism: Bacillus cereus
Quantity kind: Kd

// query Reported Kd for RMMASSMSQ : what is it?
// result ≥ 20 µM

---

Target: HLA-A*30:01
Assay: IEDB peptide-MHC binding, purified MHC/competitive/fluorescence; filed as Kd, often an IC50 or EC50 that approximates it; bounds were set here for any values at or beyond the usual limits of such assays
Details: source organism: Bacillus anthracis str. A0488
Quantity kind: Kd (nM)
Quick reminder: number only, in nM, skip the unit.

// query Reported Kd for REFEAQNVP : what is it?
// result 521

---

Molecular target: HLA-A*03:01
Assay: IEDB peptide-MHC binding, purified MHC/competitive/radioactivity; filed as Kd, often an IC50 or EC50 that approximates it; bounds were set here for any values at or beyond the usual limits of such assays
Details: source organism: Dengue virus 3 Martinique/1243/1999
Quantity kind: pKd
Convention used: pKd is expressed as -log10 of the molar concentration.

// query Reported pKd for KSLVSAGSGK : what is it?
// result 8.47

---

Target: HLA-A*01:01
Assay: IEDB peptide-MHC binding, purified MHC/direct/fluorescence; filed as Kd, often an IC50 or EC50 that approximates it; bounds were set here for any values at or beyond the usual limits of such assays
Conditions: source organism: Mammarenavirus lassaense
Quantity kind: Kd (µM)
Quick reminder: number only, in µM, skip the unit.

// query Quick check: Kd on HLA-A*01:01, item ASLIPDATY ?
// result 17.1

---

Kd values for the sequences below.
Target: HLA-B*53:01
Test: IEDB peptide-MHC binding, purified MHC/competitive/radioactivity; filed as Kd, often an IC50 or EC50 that approximates it; bounds were set here for any values at or beyond the usual limits of such assays
Details: source organism: SARS coronavirus Tor2
Quick reminder: number only, in nM, skip the unit.

Below are worked cases with known answers.
INSERT INTO results (macromolecule_sequence, measured_target, display_unit, meas_value) VALUES
  ('HPNPKGFCDL', 'HLA-B*53:01', 'nM', 698),
  ('KPASRELSV', 'HLA-B*53:01', 'nM', 14400);

// query Reported Kd for CPAEIVDTV : what is it?
// result 121

// query Cool, now FPCSICLSGL
// result 300

---

Biological target: HLA-A*24:02
Test: IEDB peptide-MHC binding, purified MHC/direct/fluorescence; filed as Kd, often an IC50 or EC50 that approximates it; bounds were set here for any values at or beyond the usual limits of such assays
Conditions: source organism: Influenza A virus (A/quail/Hong Kong/FY298/00(H9N2))
Quantity kind: Kd (nM)
Quick reminder: number only, in nM, skip the unit.

// query Quick check: Kd on HLA-A*24:02, item SYLIRALTL ?
// result 3.9
